- Target or test system: full-length beta-Catenin (Uniprot ID P35222) (Homo sapiens)
- Construct: 10 nM full-length beta-Catenin (Uniprot ID P35222)
- Sequence (P35222 whole entry): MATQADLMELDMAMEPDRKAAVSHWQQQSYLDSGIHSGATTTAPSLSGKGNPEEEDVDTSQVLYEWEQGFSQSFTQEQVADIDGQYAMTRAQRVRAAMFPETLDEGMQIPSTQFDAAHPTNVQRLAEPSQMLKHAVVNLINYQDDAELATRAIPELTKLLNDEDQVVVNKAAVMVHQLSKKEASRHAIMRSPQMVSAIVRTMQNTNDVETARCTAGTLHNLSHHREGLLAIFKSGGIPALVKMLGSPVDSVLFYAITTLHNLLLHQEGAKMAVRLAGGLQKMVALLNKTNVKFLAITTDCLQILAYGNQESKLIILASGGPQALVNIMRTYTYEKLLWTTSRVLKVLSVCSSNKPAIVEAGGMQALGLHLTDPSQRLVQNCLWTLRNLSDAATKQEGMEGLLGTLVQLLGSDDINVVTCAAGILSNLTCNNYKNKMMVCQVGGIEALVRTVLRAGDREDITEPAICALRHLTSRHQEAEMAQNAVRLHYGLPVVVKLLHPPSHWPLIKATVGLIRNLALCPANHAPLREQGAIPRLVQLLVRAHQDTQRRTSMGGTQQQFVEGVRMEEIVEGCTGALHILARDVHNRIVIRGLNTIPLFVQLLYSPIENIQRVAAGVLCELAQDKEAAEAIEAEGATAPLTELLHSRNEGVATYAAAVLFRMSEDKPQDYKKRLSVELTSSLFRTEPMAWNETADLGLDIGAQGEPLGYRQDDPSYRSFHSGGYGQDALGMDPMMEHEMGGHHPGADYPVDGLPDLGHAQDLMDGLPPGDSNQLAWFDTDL
- Test name: Fluorescence polarization IC50 (beta-catenin / 5FAM-TCF4 10-53 competition)
- Assay type: binding
- Condition: fluorescence polarization; read-out: beta-Catenin FP IC50
# reported pIC50; entries follow
Expect pIC50 as a plain number equal to -log10 of the molar concentration.

Input: Record request: pIC50 value, item CC(=O)N1CCC[C@]12CC=CCCCC1(CCCC=CCCCOC(=O)N3CC[C@@](C(=O)N[C@@H](Cc4ccsc4)C(=O)N[C@@H](Cc4c[nH]c5ncccc45)C(=O)N[C@@H](CCC(N)=O)C(N)=O)(C3)NC(=O)[C@H](CC(C)C)NC(=O)[C@H](Cc3ccccc3)NC(=O)[C@H](C)NC(=O)[C@H](C)NC(=O)[C@H](CC(=O)O)NC(=O)[C@H](CC(=O)O)NC1=O)NC(=O)[C@H](CC(C)(C)C)NC(=O)[C@H](CC(=O)O)NC2=O (some centres unmarked)
Output: 5.54

---
Input: pIC50 for CC(=O)N1CCC[C@]12CC=CCCCC1(CCCC=CCCCOC(=O)N3CC[C@@](C(=O)N[C@@H](Cc4ccsc4)C(=O)N[C@@H](Cc4csc5ccccc45)C(=O)N[C@@H](C)C(N)=O)(C3)NC(=O)[C@H](CC(C)C)NC(=O)[C@H](Cc3ccccc3)NC(=O)[C@H](C)NC(=O)[C@H](CCS(C)(=O)=O)NC(=O)[C@H](Cc3cccc(C(=O)O)c3)NC(=O)[C@H](CC(=O)O)NC1=O)NC(=O)[C@H](CC(C)(C)C)NC(=O)[C@H](CC(=O)O)NC2=O (some centres unmarked) ?
Output: 7.80

====

- Test name: CHI Log D procedure
- Format: physicochemical
- Condition: pH 7.4, CHI Log D
Each item that follows carries a reported chromatographic logD.
// no unit string in output, number only

Solved cases (9 shown):
Input: Which chromatographic logD is listed for CC(=O)N1CCC[C@]12CC=CCCCC1(CCCC=CCCCOC(=O)N3CC[C@@](C(=O)N[C@@H](Cc4ccccc4Cl)C(=O)N[C@@H](Cc4csc5ccccc45)C(=O)N[C@@H](CCC(N)=O)C(N)=O)(C3)NC(=O)[C@H](CO)NC(=O)[C@H](Cc3ccccc3)NC(=O)[C@H](C)NC(=O)[C@H](C)NC(=O)[C@H](CC(N)=O)NC(=O)[C@H](CC(=O)O)NC1=O)NC(=O)[C@H](CC(C)(C)C)NC(=O)[C@H](CC(=O)O)NC2=O (stereo partly shown) ?
Output: 2.35

Input: Record request: chromatographic logD value, item CC(=O)N1CCC[C@]12CC=CCCCC1(CCCC=CCCCOC(=O)N3CC[C@@](C(=O)N[C@@H](Cc4ccccc4)C(=O)N[C@@H](Cc4csc5ccccc45)C(=O)N[C@@H](CCC(N)=O)C(N)=O)(C3)NC(=O)[C@H](CC(C)C)NC(=O)[C@H](Cc3ccc(C(F)(F)F)cc3)NC(=O)[C@H](C)NC(=O)[C@H](C)NC(=O)[C@H](CC(=O)O)NC(=O)[C@H](CC(=O)O)NC1=O)NC(=O)[C@H](CC(C)(C)C)NC(=O)[C@H](CC(=O)O)NC2=O (stereo partly shown)
Output: 2.33

Input: Please give the measured chromatographic logD for this compound: CC(=O)N1CCC[C@]12CC=CCCCC1(CCCC=CCCCCCC[C@@](C)(C(=O)N[C@@H](Cc3cccc(F)c3)C(=O)N[C@@H](Cc3csc4ccccc34)C(=O)N[C@@H](CCC(N)=O)C(N)=O)NC(=O)[C@H](C(C)C)NC(=O)[C@H](Cc3ccccc3)NC(=O)[C@H](C)NC(=O)[C@H](C)NC(=O)[C@H](Cc3cccs3)NC(=O)[C@H](CC(=O)O)NC1=O)NC(=O)[C@H](C)NC(=O)[C@H](CC(=O)O)NC2=O (stereo partly shown)
Output: 3.39

Input: Quick check: chromatographic logD of CC(=O)N1CCC[C@]12CC=CCCCC1(CCCC=CCCCCCC[C@@](C)(C(=O)N[C@@H](Cc3ccccc3)C(=O)N[C@@H](Cc3c[nH]c4ccccc34)C(=O)N[C@@H](CCC(N)=O)C(N)=O)NC(=O)[C@H](C(C)C)NC(=O)[C@H](Cc3ccc(F)cc3)NC(=O)[C@H](C)NC(=O)[C@H](C)NC(=O)[C@H](CC(=O)O)NC(=O)[C@H](CC(=O)O)NC1=O)NC(=O)[C@H](C)NC(=O)[C@H](CC(=O)O)NC2=O (stereo partly shown) ?
Output: 2.02

Input: Which chromatographic logD reading was recorded for the compound CC(=O)N1CCC[C@]12CC=CCCCC1(CCCC=CCCCOC(=O)N3CC[C@@](C(=O)N[C@@H](Cc4ccsc4)C(=O)N[C@@H](Cc4csc5ccccc45)C(=O)N[C@@H](CCC(N)=O)C(N)=O)(C3)NC(=O)[C@H](CC(N)=O)NC(=O)[C@H](Cc3ccccc3)NC(=O)[C@H](CCCCNC(=O)C(C)(c3ccccc3)c3ccccc3)NC(=O)[C@H](C)NC(=O)[C@H](CC(=O)O)NC(=O)[C@H](CC(=O)O)NC1=O)NC(=O)[C@H](CC(C)(C)C)NC(=O)[C@H](CC(=O)O)NC2=O (stereo partly shown) ?
Output: 2.39

Input: So what's the measured chromatographic logD for this one? CC(=O)N1CCC[C@]12CC=CCCCC1(CCCC=CCCCOC(=O)N3CC[C@@](C(=O)N[C@@H](Cc4ccccc4Cl)C(=O)N[C@@H](Cc4csc5ccccc45)C(=O)N[C@@H](CCC(N)=O)C(N)=O)(C3)NC(=O)[C@H](CO)NC(=O)[C@H](Cc3ccccc3)NC(=O)[C@H](C)NC(=O)[C@H](C)NC(=O)[C@H](CC(=O)O)NC(=O)[C@H](CC(=O)O)NC1=O)NC(=O)[C@H](Cc1ccc3ccccc3c1)NC(=O)[C@H](CC(=O)O)NC2=O (stereo partly shown)
Output: 2.31

Input: So what's the measured chromatographic logD for this one? CC[C@H](C)[C@@H]1NC(=O)[C@H](CC(=O)O)NC(=O)[C@]2(CC=CCCCC3(CCCC=CCCCCCC[C@@](C)(C(=O)N[C@@H](Cc4ccccc4)C(=O)N[C@@H](Cc4csc5ccccc45)C(=O)N[C@@H](CCC(N)=O)C(N)=O)NC(=O)[C@H](CCC(N)=O)NC(=O)[C@H](Cc4ccccc4)NC(=O)[C@H](C)NC(=O)[C@H](C)NC(=O)[C@H](CCC(=O)O)NC(=O)[C@H](CC(=O)O)NC3=O)NC1=O)CCCN2C(=O)c1ccccn1 (stereo partly shown)
Output: 2.42

Input: Need chromatographic logD of CC(=O)N1CCC[C@]12CC=CCCCC1(CCCC=CCCCCCC[C@@](C)(C(=O)N[C@@H](Cc3ccccc3)C(=O)N[C@@H](Cc3csc4ccccc34)C(N)=O)NC(=O)[C@H](CC(N)=O)NC(=O)[C@H](Cc3ccccc3)NC(=O)[C@H](C)NC(=O)[C@H](C)NC(=O)[C@H](CCC(=O)O)NC(=O)[C@H](CC(=O)O)NC1=O)NC(=O)[C@H](C)NC(=O)[C@H](CC(=O)O)NC2=O (stereo partly shown) , thanks.
Output: 2.23

Input: What does the data say about its chromatographic logD? Entry: CC(=O)N1CCC[C@]12CC=CCCCC1(CCCC=CCCCOC(=O)N3CC[C@@](C(=O)N[C@@H](Cc4ccccc4F)C(=O)N[C@@H](Cc4csc5ccccc45)C(=O)N[C@@H](CCC(N)=O)C(N)=O)(C3)NC(=O)[C@H]([C@@H](C)O)NC(=O)[C@H](Cc3ccccc3)NC(=O)[C@H](C)NC(=O)[C@H](C)NC(=O)[C@H](CC(N)=O)NC(=O)[C@H](CC(=O)O)NC1=O)NC(=O)[C@H](CC(C)(C)C)NC(=O)[C@H](CC(=O)O)NC2=O (stereo partly shown)
Output: 2.29

Okay, next one:
Input: What chromatographic logD value was documented for this compound, CC(=O)N1CCC[C@]12CC=CCCCC1(CCCC=CCCCOC(=O)N3CC[C@@](C(=O)N[C@@H](Cc4ccsc4)C(=O)N[C@@H](Cc4csc5ccccc45)C(=O)N[C@@H](CCC(N)=O)C(N)=O)(C3)NC(=O)[C@H](CC(N)=O)NC(=O)[C@H](Cc3ccccc3)NC(=O)[C@H](C)NC(=O)[C@H](C)NC(=O)[C@H](CN(CC(=O)O)CC(F)(F)F)NC(=O)[C@H](CC(=O)O)NC1=O)NC(=O)[C@H](CC(C)(C)C)NC(=O)C[C@H](CC(=O)O)NC2=O (stereo partly shown) ?
Output: 2.08

====

- Test name: Solubility in PBS
- Type: physicochemical
# Solubility listing for each entry below
Record the value in µM, omitting the unit from your answer.

Below are worked cases with known answers.
Input: Please look up its Solubility: CC(=O)N1CCC[C@]12CC=CCCCC1(CCCC=CCCCOC(=O)N3CC[C@@](C(=O)N[C@@H](Cc4cccc(C(F)(F)F)c4)C(=O)N[C@@H](Cc4csc5ccccc45)C(=O)N[C@@H](CO)C(N)=O)(C3)NC(=O)[C@H]([C@@H](C)O)NC(=O)[C@H](Cc3ccccc3)NC(=O)[C@H](C)NC(=O)[C@H](C)NC(=O)[C@H]([C@@H](C)O)NC(=O)[C@H](CC(=O)O)NC1=O)NC(=O)[C@H](CC(C)(C)C)NC(=O)[C@H](CC(=O)O)NC2=O (stereo partly drawn)
Output: 10

Input: Entry CC(=O)N1CCC[C@]12CC=CCCCC1(CCCC=CCCCCCC[C@@](C)(C(=O)N[C@@H](Cc3ccncc3)C(=O)N[C@@H](Cc3csc4ccccc34)C(=O)N[C@@H](CCC(N)=O)C(N)=O)NC(=O)[C@H](C(C)C)NC(=O)[C@H](Cc3ccccc3)NC(=O)[C@H](C)NC(=O)[C@H](C)NC(=O)[C@H](CCC(=O)O)NC(=O)[C@H](CC(=O)O)NC1=O)NC(=O)[C@H](C)NC(=O)[C@H](CC(=O)O)NC2=O (stereo partly drawn) has what Solubility?
Output: 50

Here's the next entry for you.
Input: Which value of Solubility has been reported for CC(=O)N1CCC[C@]12CC=CCCCC1(CCCC=CCOC(=O)N(C)CCC[C@@](C)(C(=O)N[C@@H](Cc3ccsc3)C(=O)N[C@@H](Cc3csc4ccccc34)C(=O)N[C@@H](CCC(N)=O)C(N)=O)NC(=O)[C@H](CC(N)=O)NC(=O)[C@H](Cc3ccccc3)NC(=O)[C@H](C)NC(=O)[C@H](C)NC(=O)[C@H](CC(=O)O)NC(=O)[C@H](CC(=O)O)NC1=O)NC(=O)[C@H](CC(C)(C)C)NC(=O)[C@H](CC(=O)O)NC2=O (stereo partly drawn) [I-766] in the records?
Output: 50
